- Tested on: NCI-H23
- Assay: NCI tumour cell line growth inhibition, 48 h
Active and inactive are the calls of the source. Cut-off read from the data, not from the text of the source: active = GI50 up to about 1.1 µM and inactive = higher.
Parameter measured: GI50

The cases that follow already have their GI50 on record.
Compound: NC(=S)SC1=NC(=O)C2(NN1)c1ccccc1-c1ccccc12
GI50: > 10 µM (inactive)

Compound: O=S1(=O)OCc2ccccc21
GI50: > 100 µM (inactive)

Compound: O=C1OC(C(O)CO)C(C(O)CO)OC1=O (centres undefined)
GI50: > 10 µM (inactive)

Proceed to the following item.
Fill blank: measured GI50 of the compound C[n+]1c2ccccc2c(C(=O)Nc2ccc(S(=O)(=O)Nc3ccnn3-c3ccccc3)cc2)c2ccccc21 is ____.
> 100 µM (inactive)

* * *

- System: SK-MEL-28
- Assay: NCI tumour cell line growth inhibition, 48 h
Calls of active or inactive are those of the source. No stated cut-off is given here; in the data, active = GI50 up to about 1.1 µM and inactive = higher.
Assign GI50 to each entry below.

Compound: C[N+](C)(C)CC1CCCC(C[N+](C)(C)C)C1O (centres undefined)
Meas value: > 100 µM (inactive)

Compound: O=C1c2ccccc2-c2ccc(N(Cc3ccc(Br)cc3)Cc3ccc(Br)cc3)cc21
Meas value: > 100 µM (inactive)

Compound: Cc1c(C#N)c(=N)oc2ccccc12
Meas value: > 100 µM (inactive)

Provide value of GI50 for this record tested with SK-MEL-28: O=C(O)CSc1cc(-c2ccccc2)nc2ccccc12
85.1 µM (inactive)

* * *

- Test system: NCI-H226
- Assay: NCI tumour cell line growth inhibition, 48 h
The source made the active and inactive calls. Rule as the data show it: active = GI50 up to about 1.1 µM and inactive = higher.
Parameter measured: GI50

The examples below pair each entry with its known result.
Compound: COc1ccc(/N=N/C(=O)NC(CC(C)C)C(=O)NCC(=O)O)cc1 (stereo not drawn)
GI50: > 41 µM (inactive)
--
Compound: O=C(O)CCC(N/N=N/c1ccc(-c2nc3ccccc3[nH]2)cc1)C(=O)O (stereo not drawn)
GI50: > 100 µM (inactive)

Can you share its GI50? I mean this compound: O=C1C(=Cc2cccc(Cl)c2)N=C(c2ccccc2)N1n1c(-c2ccccc2)nc2ccccc2c1=O
63.4 µM (inactive)

* * *

- System: HOP-18
- Assay: NCI tumour cell line growth inhibition, 48 h
The source made the active and inactive calls. Rule as the data show it: active = GI50 up to about 1.1 µM and inactive = higher.
So I've got a bunch of molecules here, and I need their GI50 values.

Dear colleague, could you send me GI50 for each of the items below? Thanks.
1. COC(=O)N/N=c1\cc(C(=O)Nc2ccc(C)c(C)c2)oc2cc(O)ccc12
2. CN1CCc2c1nc(-c1ccccc1)c1c2N(C)CC1

1. > 100 µM (inactive)
2. 3.82 µM (inactive)

Take each entry in turn and give its GI50.
1. O=C(c1ccc(F)cc1)c1cccc(C(=O)c2ccc(F)cc2)n1
2. C/C=C1\C=C(OC)CN(CCc2c[nH]c3ccccc23)C1
3. CCN(CCCl)CCNc1c2ccccc2nc2ccc(OC)cc12

["53.2 µM (inactive)", "> 10 µM (inactive)", "2.7 µM (inactive)"]

* * *

Field: GI50. Provide a value for each of the molecules that follow.
- Tested on: TK-10
- Assay: NCI tumour cell line growth inhibition, 48 h
Active and inactive are the calls of the source. No stated cut-off is given here; in the data, active = GI50 up to about 1.1 µM and inactive = higher.

Below: 2 molecules and their reported GI50.
Molecule: CC(C)Oc1cc(O)c2c(c1)OCC=C2CCC(=O)O
GI50: 20.3 µM (inactive)
//
Molecule: CN(C)CC1CCCC(CN(C)C)C1OC(=O)c1ccccc1 (stereo unspecified)
GI50: > 100 µM (inactive)

// for each molecule in input: emit GI50
1. c1ccc(-c2cc(-c3cc(-c4ccccc4)no3)on2)cc1
2. COc1cc(N(CCC#N)CCC#N)ccc1C(=N/NC(=O)c1cc(Br)ccc1O)/N=N/c1ccccc1
3. Cc1cccc(N2CCN(S(=O)(=O)c3ccc(Cl)cc3)C2=N)c1C

1: > 100 µM (inactive); 2: 33.1 µM (inactive); 3: > 100 µM (inactive)

Quick check: GI50 of O=[N+]([O-])/C=C/c1cccc(F)c1 ?
3.82 µM (inactive)

Each recorded value in this set is attributed to ChEMBL document CHEMBL1201862.
